- test.details: in vitro
- setup.conditions: African green monkey, CC50, Vero cells, column K (Sindbis virus), MTS assay
metric.name: CC50

Summary for this molecule, `NC(=O)c1ncn([C@@H]2O[C@H](CO)[C@@H](O)[C@H]2O)n1` : CC50 is > 250 µM

###

- Test system: HIV-1 ROD strain
- Format: cell-based
- setup.conditions: HIV-1 ROD, MT-4 cells, MTT method; Exp_nr P3.4402 and P3.4407
pIC50: −log10 of the molar value.
metric.name: pIC50

Summary for this molecule, COc1cc(/C=C/C(=O)CC(=O)/C=C/c2ccc(OC(=O)CCC(NC(=O)c3ccc(NCc4cnc5nc(N)[nH]c(=O)c5n4)cc3)C(=O)O)c(OC)c2)ccc1OC(=O)CCC(NC(=O)c1ccc(NCc2cnc3nc(N)[nH]c(=O)c3n2)cc1)C(=O)O (stereo not shown) : pIC50 is < 7.30

Summary for this molecule, COc1cc(/C=C/C(=O)C(CCOC(=O)CCC(NC(=O)c2ccc(NCc3cnc4nc(N)[nH]c(=O)c4n3)cc2)C(=O)O)C(=O)/C=C/c2ccc(O)c(OC)c2)ccc1O (stereo not shown) : pIC50 is < 7.21

Summary for this molecule, `COc1cc(/C=C/C(=O)CC(=O)/C=C/c2ccc(OC(=O)[C@H](Cc3ccccc3)NC(=O)[C@@H](N)Cc3c[nH]c4ccccc34)c(OC)c2)ccc1OC(=O)[C@H](Cc1ccccc1)NC(=O)[C@@H](N)Cc1c[nH]c2ccccc12` : pIC50 is < 6.99

Summary for this molecule, COc1cc(/C=C/C(=O)CC(=O)/C=C/c2ccc(OCCOC(=O)CCC(NC(=O)c3ccc(NCc4cnc5nc(N)[nH]c(=O)c5n4)cc3)C(=O)O)c(OC)c2)ccc1O (stereo not shown) : pIC50 is < 7.06

###

- test.details: in vitro
- setup.conditions: African green monkey, CC50, Vero cells, column J (Reovirus-1), MTS assay
metric.name: CC50

Summary for this molecule, NC(=O)c1ncn([C@@H]2O[C@H](CO)[C@@H](O)[C@H]2O)n1 [Ribavirin] : CC50 is > 250 µM

###

- test.details: in vitro
- setup.conditions: African green monkey, CC50, Vero cells, column L (Coxsakie virus B4), MTS assay
metric.name: CC50

Summary for this compound, NC(=O)c1ncn([C@@H]2O[C@H](CO)[C@@H](O)[C@H]2O)n1 [Ribavirin] : CC50 is > 250 µM

###

- test.details: in vitro
- setup.conditions: African green monkey, CC50, Vero cells, column M (Punta toro virus), MTS assay
metric.name: CC50

Summary for this compound, `NC(=O)c1ncn([C@@H]2O[C@H](CO)[C@@H](O)[C@H]2O)n1` : CC50 is > 250 µM

###

- Tested on: Parainfluenza-3 virus
- test.details: organism not typed
- Format: cell-based
- setup.conditions: Vero
pEC50: −log10 of the molar value.
In this section, each of the compounds is paired with its reported pEC50.

INSERT INTO assay_data (compound, result) VALUES
  ('COc1cc(/C=C/C(=O)CC(=O)/C=C/c2ccc(OC(=O)CCC(NC(=O)c3ccc(NCc4cnc5nc(N)[nH]c(=O)c5n4)cc3)C(=O)O)c(OC)c2)ccc1OC(=O)CCC(NC(=O)c1ccc(NCc2cnc3nc(N)[nH]c(=O)c3n2)cc1)C(=O)O (stereo not drawn) [Compound 6]', '< 7.09'),
  ('Nc1ncnc2c1ncn2C[C@H](O)CO [(S)-DHPA, reference compound]', '< 3.60');

Turning now to a further compound:
Summary for this compound, COc1cc(/C=C/C(=O)CC(=O)/C=C/c2ccc(OC(=O)[C@H](Cc3ccccc3)NC(=O)[C@@H](N)Cc3c[nH]c4ccccc34)c(OC)c2)ccc1OC(=O)[C@H](Cc1ccccc1)NC(=O)[C@@H](N)Cc1c[nH]c2ccccc12 [Compound 2] : pEC50 is < 7.42
